System: HIV-1 BaL
Assay Protocol: Anti-HIV activity in infected TZM-bl cells (luciferase)
Type: cell-based
Protocol Conditions: Human immunodeficiency virus 1, BAL, TZM-bl
Reported Metric: pIC50
Answers are plain numbers, as −log10 of the molar value.

O=c1c(O)c(-c2ccc(O)c(O)c2)oc2cc(O)cc(O)c12 [Quercetin] : 4.05

// next entry
Input line: pIC50 lookup needed for O=c1c(O)c(-c2cc(O)c(O)c(O)c2)oc2cc(O)cc(O)c12 [Myricetin] , thanks.
Output line: 4.69

----------
Assay Protocol: Cytotoxicity tests on TZM-bl, HeLa, PBMC and H9 cells (summary statements)
Assay type: cell-based, human
Protocol Conditions: human, PBMC and H9 cells; at 100 µM concentration; TZM-bl, HeLa, PBMC, H9; read-out: cell viability compared with the negative control (only cells)
Reported Metric: viability at 24 h, 100 µM

Input line: viability at 24 h, 100 µM lookup needed for `O=c1c(O)c(-c2cc(O)c(O)c(O)c2)oc2cc(O)cc(O)c12` , thanks.
Output line: ≥ 85%

----------
Tested on: HIV-1 89.6
Assay Protocol: Anti-HIV activity in H9 cells, HIV-1 89.6 (p24 ELISA)
Type: cell-based
Protocol Conditions: Human immunodeficiency virus 1; H9 cells, HIV-1 89.6, p24 ELISA; read-out: IC50
Description: HIV-1 infection of H9 cells was performed as described by Gurgo et al. as follows: H9 cells were seeded at 1×10^5 cell/mL into a 24 well plate. […] After 48 hours of incubation, the supernatant was collected and frozen at −80°C. ELISA was performed to detect p24, and the cytotoxicity assay was done using the resazurin fluorometric method, as described previously. […]
Reported Metric: IC50 (µM)
Give bare numbers, in µM.

O=C1C[C@@H](c2ccccc2)Oc2cc(O)cc(O)c21 : 42.2

// next entry
Input line: IC50 lookup needed for `O=c1c(O)c(-c2ccc(O)c(O)c2)oc2cc(O)cc(O)c12` , thanks.
Output line: 29.8

----------
Assay Protocol: Cytotoxicity tests on TZM-bl, HeLa, PBMC and H9 cells (summary statements)
Assay type: cell-based, human
Protocol Conditions: human, PBMC and H9 cells; at concentrations between 20 µM–60 µM; TZM-bl, HeLa, PBMC, H9; read-out: cell viability
Reported Metric: viability at 24 h

Input line: viability at 24 h lookup needed for `O=C1C[C@@H](c2ccccc2)Oc2cc(O)cc(O)c21` , thanks.
Output line: ≥ 85%

Sourced from paper PMC4278898
